# Assayed System: T1, human ceruloplasmin (human, UniProt P00450 20-1065)
# T1 construct: also called CP; purified CP
# T1 sequence: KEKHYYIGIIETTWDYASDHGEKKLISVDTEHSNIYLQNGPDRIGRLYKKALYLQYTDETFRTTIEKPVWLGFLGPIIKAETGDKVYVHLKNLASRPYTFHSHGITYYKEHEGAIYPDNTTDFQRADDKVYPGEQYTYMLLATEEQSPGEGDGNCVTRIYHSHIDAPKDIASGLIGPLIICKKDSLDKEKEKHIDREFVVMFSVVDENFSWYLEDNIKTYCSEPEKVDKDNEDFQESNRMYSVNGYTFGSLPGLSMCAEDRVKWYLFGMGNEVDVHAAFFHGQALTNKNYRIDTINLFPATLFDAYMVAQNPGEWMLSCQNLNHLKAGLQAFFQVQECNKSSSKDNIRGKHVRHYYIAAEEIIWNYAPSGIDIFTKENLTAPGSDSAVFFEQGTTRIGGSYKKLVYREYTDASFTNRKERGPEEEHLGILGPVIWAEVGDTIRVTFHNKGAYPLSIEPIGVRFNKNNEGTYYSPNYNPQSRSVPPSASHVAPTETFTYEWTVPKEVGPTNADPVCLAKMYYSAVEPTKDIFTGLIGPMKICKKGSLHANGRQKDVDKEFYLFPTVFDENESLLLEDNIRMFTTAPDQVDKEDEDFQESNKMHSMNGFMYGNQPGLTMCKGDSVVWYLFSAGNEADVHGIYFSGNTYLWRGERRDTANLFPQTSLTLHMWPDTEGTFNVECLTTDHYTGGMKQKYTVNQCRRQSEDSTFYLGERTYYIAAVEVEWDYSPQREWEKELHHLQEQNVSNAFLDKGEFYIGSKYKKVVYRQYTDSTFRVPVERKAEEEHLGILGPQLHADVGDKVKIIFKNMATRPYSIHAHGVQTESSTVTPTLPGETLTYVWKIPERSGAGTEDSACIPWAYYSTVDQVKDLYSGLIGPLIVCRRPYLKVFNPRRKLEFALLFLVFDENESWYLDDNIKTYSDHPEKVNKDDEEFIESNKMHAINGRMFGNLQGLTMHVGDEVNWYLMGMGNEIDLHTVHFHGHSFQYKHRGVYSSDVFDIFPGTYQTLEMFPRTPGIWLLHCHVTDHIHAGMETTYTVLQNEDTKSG
# Experiment: competition ELISA on coated CP, biotinylated probe; competitor: mAb A
Hi there, I'd appreciate the recorded probe binding, % of diluent control for every entry that follows.
The answer is to be given in %; state only the numeric part.

Lab note: measured probe binding, % of diluent control of anti-CP mAb B (antibody, V domains shown, Recombinant full-length rabbit IgG from HEK-293; tested as conditioned medium, Protein A-purified and biotinylated) VH: QQQLEESGGGLVKPGGTLTLTCKASGIDFSSYYYMCWVRQAPGKGLEWIACIYVIDDTIYCANWAKGRFTISKTSSTTVTLQMTSLTAADTATYFCARDGSSGIRDYFDLWGPGTLVTVSS VL: AYDMTQTPASVEVAVGGTVTIKCQASESVSTWLAWYQQKPGQPPKLLIYKASDLASGVPSRFKGSGSGTEFTLTISGVECADAATYYCQQGYTYNNVENVFGGGTEVVVKG was 94

Lab note: measured probe binding, % of diluent control of anti-CP mAb G (antibody, V domains shown, Recombinant full-length rabbit IgG from HEK-293; also called mAb3) VH: QSLEESGGRLVTPGTLLTLTCTVSGFSLSSNAMSWVRQAPGEGLEWIGTISSRGSTYYANWAKGRFTISKTSTTVDLKITSPTTEDTATYFCARSSLAGYEPYYFKLWGQGTLVTVSS VL: DVVMTQTASPVSAAVGGTVTIKCQASESISSYLAWYQQKPGQPPKLLIYGASDLASGVPSRFKGSGSGTEFTLTISDLECADAATYYCQSYYGLSRNGYGNVFGGGTEVVVKG was 91

Lab note: measured probe binding, % of diluent control of anti-CP mAb H (antibody, V domains shown, Recombinant full-length rabbit IgG from HEK-293; tested as conditioned medium, Protein A-purified and biotinylated) VH: QSVEESGGRLVTPGTPLTLTCTVSGFSLSTYAMGWVRQAPGKGLEYIGIIYGGSGTFYASWAKGRFTISKTSTTVDLKITSPTTEDTATYFCARDGDDSYFDYFNLWGQGTLVTVSS VL: AAVLTQTPASVSAAVGGTVSISCQSNENIGSNLAWYQQKPGQPPKLLIYGASTLTSGVPSRFKGSGSGTAFTLTISGVQCDDAATYYCLGGYLSTSDTTFGGGTAVVVKG was 93
